Test system: Liver
Assay: Metabolic stability in mouse liver microsomes assessed as metabolic rate per mg protein preincubated for 5 mins followed by NADPH addition measured up to 30 mins by LC-MS/MS analysis
Assay type: ADME, microsome
Conditions: 0.5 h
The compounds listed here are annotated with their Drug metabolism.
Report the figure along with its unit, number first.

CCCn1c(=O)c2[nH]c(-c3cnn(CC4CC(=O)N(c5cccc(F)c5)C4)c3)nc2n(CCC)c1=O (stereo not drawn) = 0.35 nmol/min/mg
CCCn1c(=O)c2[nH]c(-c3cnn(CC4CCN(c5ccc(OC)cc5)C4)c3)nc2n(CCC)c1=O (stereo not drawn) = 0.43 nmol/min/mg
CCCn1c(=O)c2[nH]c(-c3ccc(OCC4CC(=O)N(c5ccc(C(F)(F)F)cc5)C4)nc3)nc2n(CCC)c1=O (stereo not drawn) = 0 nmol/min/mg
CCCn1c(=O)c2[nH]c(-c3cnn(CC4CC(=O)N(c5cccc(C(F)(F)F)c5)C4)c3)nc2n(CCC)c1=O (stereo not drawn) = 0.61 nmol/min/mg

Need Drug metabolism, item CCCn1c(=O)c2[nH]c(-c3cnn(CC4CC(=O)N(c5ccc(C(F)(F)F)cc5)C4)c3)nc2n(CC)c1=O (stereo not drawn)
0.16 nmol/min/mg

Thanks! And CCCn1c(=O)c2[nH]c(-c3cnn(CC4CC(=O)N(c5ccc(OC(F)(F)F)cc5)C4)c3)nc2n(CCC)c1=O (stereo not drawn) ?
0.24 nmol/min/mg

Quick one: CCCn1c(=O)c2[nH]c(-c3cnn(CC4CCN(c5cccc(C(F)(F)F)c5)C4)c3)nc2n(CCC)c1=O (stereo not drawn)
0 nmol/min/mg

Try this compound next: CCCn1c(=O)c2[nH]c(-c3ccc(OCC4CC(=O)N(c5ccc(C(F)(F)F)cc5)C4)cc3)nc2n(CCC)c1=O (stereo not drawn)
0.01 nmol/min/mg

Another compound: CCCn1c(=O)c2[nH]c(-c3cnn(CC4CC(=O)N(c5cccc(OC(F)(F)F)c5)C4)c3)nc2n(CCC)c1=O (stereo not drawn)
0.57 nmol/min/mg

Lookup CCCn1c(=O)c2[nH]c(-c3cnn(CC4CCN(c5cccc(C(F)(F)F)c5)C4=O)c3)nc2n(CCC)c1=O (stereo not drawn)
0.34 nmol/min/mg

---

Documented inhibition across a set of molecules
Molecular target: Adenosine receptor A1 (Homo sapiens)
Assay: Displacement of [3H]DPCPX from human adenosine receptor A1 expressed in HEK293 cell membranes at 0.1 uM after 90 mins by liquid scintillation counting method relative to control
The figure you give is taken to be in %; do not add the unit.

Worked cases, inhibition given:
CCCn1c(=O)c2[nH]c(-c3cnn(CC4CC(=O)N(c5cccc(F)c5)C4)c3)nc2n(CC)c1=O (stereo not given) = 30
CCCn1c(=O)c2[nH]c(-c3ccc(OCC4CC(=O)N(c5ccc(F)cc5)C4)nc3)nc2n(CCC)c1=O (stereo not given) = 30
CCCn1c(=O)c2[nH]c(-c3cnn(CC4CC(=O)N(c5cccc(C)c5)C4)c3)nc2n(CCC)c1=O (stereo not given) = 29
CCCn1c(=O)c2[nH]c(-c3cnn(CC4CC(=O)N(c5ccc(F)cc5)C4)c3)nc2n(CCC)c1=O (stereo not given) = 31

Field: next molecule
Which inhibition is listed for CCCn1c(=O)c2[nH]c(-c3cnn(CC4CC(=O)N(c5cccc(F)c5)C4)c3)nc2n(CCC)c1=O (stereo not given) ?
32
